These measurements were taken from patent US20190367619A1.

- experimental.system: T1, recombinant human galectin-10, TEV-cleaved (human, UniProt Q05315 1-142)
- T1 sequence: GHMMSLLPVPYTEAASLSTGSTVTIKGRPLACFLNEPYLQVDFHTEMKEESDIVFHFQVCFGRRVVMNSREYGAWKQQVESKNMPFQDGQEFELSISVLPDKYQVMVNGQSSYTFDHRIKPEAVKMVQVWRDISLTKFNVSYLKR
- assay.summary: cell-based or functional assay
assay.endpoint: 50% crystal dissolution (min), 50 uM
Please give a number only; it is taken to be in min.

// sample 1D11 Fab (Fab, V domains shown, Fab with human CH1 (including part of the hinge region) and human lambda constant domain; also called Fab-1D11; 1D11 hFab) VH: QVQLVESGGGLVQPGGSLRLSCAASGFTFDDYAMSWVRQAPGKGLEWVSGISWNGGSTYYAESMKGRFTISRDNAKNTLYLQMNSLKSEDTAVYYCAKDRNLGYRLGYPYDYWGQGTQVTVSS VL: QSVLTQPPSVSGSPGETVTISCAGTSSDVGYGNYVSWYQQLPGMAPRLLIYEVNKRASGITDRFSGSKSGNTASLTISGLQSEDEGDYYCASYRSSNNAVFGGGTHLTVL , its 50% crystal dissolution (min), 50 uM was 33.4
